# Tested on: OVCAR-4
# EXPERIMENT NOTES: NCI tumour cell line growth inhibition, 48 h
The source made the active and inactive calls. No stated cut-off is given here; in the data, active = GI50 up to about 1.1 µM and inactive = higher.
Pick from 1 = active, -1 = inactive when you respond.

>>> class_name("C=C1COC(O)(C2OCOC(C3CC(=O)NC(=O)C3)C2O)C1C (stereo unspecified)")
1
>>> class_name("c1cc(-c2cn[nH]c2)cc(-c2cn[nH]c2)c1")
-1

Exercise: Outcome logged for CC(=O)Oc1ccc(/C=C/C(=O)OCCCOC(=O)/C=C/c2ccc(OC(C)=O)c(OC(C)=O)c2)cc1OC(C)=O in this assay:
Key: -1

Exercise: Outcome logged for O=C(O)CSc1ccn(Cc2ccccc2)c1 in this assay:
Key: -1

Exercise: Outcome logged for C=CC(OC(C)=O)c1ccc(OC(C)=O)cc1 (stereo unspecified) in this assay:
Key: -1

Exercise: Outcome logged for C[C@@]12CCC(=O)c3coc(c31)C(=O)c1cc3c(cc12)C(=O)C=CC3=O in this assay:
Key: -1

Exercise: Outcome logged for C[C@@]1(O)CC[C@]2(C)C3CCCC3[C@H]12 (stereo partly specified) in this assay:
Key: -1

Exercise: Outcome logged for C[Si](C)(C)C1=C([Si](C)(C)C)C(Cl)(Cl)C1=O in this assay:
Key: -1

Exercise: Outcome logged for Cc1ccc(/N=N\c2c(O)ccc3cc(S(=O)(=O)O)ccc23)cc1 in this assay:
Key: -1

Exercise: Outcome logged for Clc1ccc(Nc2ncco2)cc1Cl in this assay:
Key: -1

src = ChEMBL document CHEMBL1201862
